Molecular target: soluble guanylate cyclase (sGC), α1/β1 heterodimer (Homo sapiens, UniProt Q02108+Q02153)
Sequence (Q02153 1-619): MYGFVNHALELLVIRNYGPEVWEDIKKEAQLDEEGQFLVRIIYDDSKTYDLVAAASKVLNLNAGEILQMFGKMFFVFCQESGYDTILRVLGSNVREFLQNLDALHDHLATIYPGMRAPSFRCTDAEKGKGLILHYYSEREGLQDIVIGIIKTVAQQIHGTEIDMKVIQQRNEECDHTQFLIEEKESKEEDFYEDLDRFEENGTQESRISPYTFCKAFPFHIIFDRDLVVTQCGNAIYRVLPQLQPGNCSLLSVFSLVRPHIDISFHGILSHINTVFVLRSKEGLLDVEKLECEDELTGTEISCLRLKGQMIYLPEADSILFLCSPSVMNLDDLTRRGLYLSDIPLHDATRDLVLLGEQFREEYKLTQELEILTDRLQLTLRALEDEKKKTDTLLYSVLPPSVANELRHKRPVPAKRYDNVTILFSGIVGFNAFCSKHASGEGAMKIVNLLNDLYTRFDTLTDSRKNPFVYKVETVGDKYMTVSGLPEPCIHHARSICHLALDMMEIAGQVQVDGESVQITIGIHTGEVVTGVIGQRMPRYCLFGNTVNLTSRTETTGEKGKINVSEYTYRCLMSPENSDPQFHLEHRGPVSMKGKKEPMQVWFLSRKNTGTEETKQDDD
Sequence (Q02108 1-690): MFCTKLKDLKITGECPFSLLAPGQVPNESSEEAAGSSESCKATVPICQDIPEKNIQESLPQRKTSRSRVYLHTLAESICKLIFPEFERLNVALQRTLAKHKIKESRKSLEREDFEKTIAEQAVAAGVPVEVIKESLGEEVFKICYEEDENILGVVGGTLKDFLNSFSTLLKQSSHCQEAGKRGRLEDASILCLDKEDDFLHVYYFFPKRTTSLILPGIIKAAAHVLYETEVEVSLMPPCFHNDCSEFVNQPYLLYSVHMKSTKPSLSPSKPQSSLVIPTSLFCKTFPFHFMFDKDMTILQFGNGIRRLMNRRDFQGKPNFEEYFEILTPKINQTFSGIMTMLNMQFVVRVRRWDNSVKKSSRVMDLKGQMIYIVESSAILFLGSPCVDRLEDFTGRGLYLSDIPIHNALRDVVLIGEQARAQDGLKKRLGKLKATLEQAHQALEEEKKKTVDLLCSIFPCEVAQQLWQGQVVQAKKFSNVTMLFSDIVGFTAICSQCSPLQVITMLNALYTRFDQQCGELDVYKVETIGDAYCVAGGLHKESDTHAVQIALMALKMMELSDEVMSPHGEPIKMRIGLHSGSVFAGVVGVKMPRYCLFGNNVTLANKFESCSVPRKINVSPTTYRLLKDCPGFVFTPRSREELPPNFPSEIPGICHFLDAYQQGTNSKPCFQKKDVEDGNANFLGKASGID
Test: SPR (Biacore T200, sGC immobilized on CM5 chip), positive control
Type: binding
Parameters: gene GUCY1B1; full-length recombinant sGC (α1 and β1 subunits coexpressed in Sf9 cells); with sGC α1 subunit (GUCY1A1, Q02108)
ENDPOINT LABEL: pKd
The meaning of pKd here: minus log10 of the concentration in molar units.

Form: item OCc1ccc(-c2nn(Cc3ccccc3)c3ccccc23)o1 [YC-1] ; test system soluble guanylate cyclase (sGC), α1/β1 heterodimer (Homo sapiens, UniProt Q02108+Q02153); pKd: 5.66
